This collection of values is drawn from ChEMBL document CHEMBL5344413.

Assay: Intrinsic clearance in mouse liver microsomes at 10 uM measured per mg protein
Assay type: ADME, Microsome
Experimental parameters: read-out: CLH
Property label: microsomal CLint at 10 µM (µL/min/mg)
Give the number; µL/min/mg is assumed, so skip it.

input: Find the measured microsomal CLint at 10 µM of O=C1CC(c2nc(-c3ccc(F)c4cn[nH]c34)no2)CCCN1c1ccc(F)cc1 (stereo unspecified) and report it.
output: 106

* * *

Assay: Clearance in BALB/c mouse at 5 mg/kg, po
Assay type: ADME, organism-based
Experimental parameters: in vivo
Property label: CL/F

input: Find the measured CL/F of O=C1CC(c2nc(-c3ccc(F)c4cn[nH]c34)no2)CCCN1c1ccc(F)cc1 (stereo unspecified) and report it.
output: 50.8 mL/min/kg

* * *

Assay: AUC(0 to t) in BALB/c mouse at 5 mg/kg, ip
Type: ADME, organism-based
Parameters: dose 5 mg/kg, route ip
Experimental parameters: in vivo
Property label: AUC(0-t) (µg·h/mL)
Give the number; µg·h/mL is assumed, so skip it.

input: Find the measured AUC(0-t) of O=C1CC(c2nc(-c3ccc(F)c4cn[nH]c34)no2)CCCN1c1ccc(F)cc1 (stereo unspecified) and report it.
output: 1.83

* * *

Assay: AUC(0 to infinity) in BALB/c mouse at 20 mg/kg, po
Format: ADME, organism-based
Parameters: dose 20 mg/kg, route po
Experimental parameters: in vivo
Property label: AUC(0-inf) (ng·h/mL)
Give the number; ng·h/mL is assumed, so skip it.

input: Find the measured AUC(0-inf) of O=C1CC(c2nc(-c3ccc(F)c4cn[nH]c34)no2)CCCN1c1ccc(F)cc1 (stereo unspecified) and report it.
output: 18000

* * *

Assay: Intrinsic clearance in rat liver microsomes at 10 uM measured per mg protein
Assay type: ADME, Microsome
Experimental parameters: read-out: CLH
Property label: microsomal CLint at 10 µM (µL/min/mg)
Give the number; µL/min/mg is assumed, so skip it.

input: Find the measured microsomal CLint at 10 µM of O=C1CC(c2nc(-c3ccc(F)c4cn[nH]c34)no2)CCCN1c1ccc(F)cc1 (stereo unspecified) and report it.
output: 130

* * *

Assay: Metabolic stability of the compound in mouse liver microsomes assessed as parent compound remaining at 10 uM measured after 60 mins
Format: ADME, Microsome
Experimental parameters: read-out: Stability
Property label: remaining at 1 h, 10 µM

input: Find the measured remaining at 1 h, 10 µM of O=C1CC(c2nc(-c3ccc(F)c4cn[nH]c34)no2)CCCN1c1ccc(F)cc1 (stereo unspecified) and report it.
output: 3.15%

* * *

Assay: Tmax in BALB/c mouse at 5 mg/kg, ip
Type: ADME, organism-based
Experimental parameters: in vivo
Property label: Tmax (min)
Give the number; min is assumed, so skip it.

input: Find the measured Tmax of O=C1CC(c2nc(-c3ccc(F)c4cn[nH]c34)no2)CCCN1c1ccc(F)cc1 (stereo unspecified) and report it.
output: 19.8

* * *

Each item that follows carries a reported EC50.
Assayed system: Cannabinoid receptor 2 (Homo sapiens)
Sequence (P34972 whole entry): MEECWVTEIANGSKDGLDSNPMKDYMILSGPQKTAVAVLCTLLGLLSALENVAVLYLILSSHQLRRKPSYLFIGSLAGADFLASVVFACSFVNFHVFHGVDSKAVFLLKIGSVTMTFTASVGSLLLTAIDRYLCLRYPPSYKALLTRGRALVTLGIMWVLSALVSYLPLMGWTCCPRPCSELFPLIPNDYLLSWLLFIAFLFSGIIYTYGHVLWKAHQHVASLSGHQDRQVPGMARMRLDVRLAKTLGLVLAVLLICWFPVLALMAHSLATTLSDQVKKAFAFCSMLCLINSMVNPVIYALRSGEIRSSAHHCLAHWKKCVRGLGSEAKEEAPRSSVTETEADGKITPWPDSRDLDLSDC
Assay: Agonist activity at human CB2 receptor expressed in CHO cells assessed as inhibition of forskolin-stimulated intracellular cAMP accumulation measured after 30 mins by Glosensor assay
Format: functional, cell-based
Give the number; nM is assumed, so skip it.

O=C1CC(c2nc(-c3cccc(F)c3)no2)CCCN1c1ccc(F)cc1 (stereo not given); 2120
O=C1CC(c2nc(-c3ccc(F)c4cn[nH]c34)no2)CCCN1c1ccccc1 (stereo not given); 300
O=C1C[C@H](c2nc(-c3ccc(F)c4cn[nH]c34)no2)CCCN1c1ccc(F)cc1; 34.8

input: Find the measured EC50 of O=C1CC(c2nc(-c3ccc(F)c4cc[nH]c34)no2)CCCN1c1ccc(F)cc1 (stereo not given) and report it.
output: 449

input: Find the measured EC50 of O=C1CC(c2nc(-c3ccc(F)c4cn[nH]c34)no2)CCCN1c1cccc(F)c1 (stereo not given) and report it.
output: 1310
